Numbers sourced from ChEMBL document CHEMBL1961873.

# ASSAY TARGET: Leukocyte tyrosine kinase receptor (Homo sapiens)
# CONDITION DETAILS: at 0.1 µM
# Description: GSK_PKIS: LTK mean inhibition at 0.1 uM [Nanosyn]
Give measured inhibition for each item. Keep answers brief.
Provide only the numeric value, understood in %.

Sample `CNC(=O)c1cncc(/C=C/c2c(C)cccc2C)c1` — what was its inhibition?
-1.27

Would you mind doing `Fc1ccc(-c2c(-c3ccncc3)nc3n2CCS3)cc1` as well?
3.49

Would you mind doing `NS(=O)(=O)c1ccc(N/N=C2\C(=O)Nc3ccc(-c4cnco4)cc32)cc1` as well?
1.24

* * *

# ASSAY TARGET: Tyrosine-protein kinase Fyn (Homo sapiens) (UniProt P06241)
# Sequence (P06241 2-537 limits assumed): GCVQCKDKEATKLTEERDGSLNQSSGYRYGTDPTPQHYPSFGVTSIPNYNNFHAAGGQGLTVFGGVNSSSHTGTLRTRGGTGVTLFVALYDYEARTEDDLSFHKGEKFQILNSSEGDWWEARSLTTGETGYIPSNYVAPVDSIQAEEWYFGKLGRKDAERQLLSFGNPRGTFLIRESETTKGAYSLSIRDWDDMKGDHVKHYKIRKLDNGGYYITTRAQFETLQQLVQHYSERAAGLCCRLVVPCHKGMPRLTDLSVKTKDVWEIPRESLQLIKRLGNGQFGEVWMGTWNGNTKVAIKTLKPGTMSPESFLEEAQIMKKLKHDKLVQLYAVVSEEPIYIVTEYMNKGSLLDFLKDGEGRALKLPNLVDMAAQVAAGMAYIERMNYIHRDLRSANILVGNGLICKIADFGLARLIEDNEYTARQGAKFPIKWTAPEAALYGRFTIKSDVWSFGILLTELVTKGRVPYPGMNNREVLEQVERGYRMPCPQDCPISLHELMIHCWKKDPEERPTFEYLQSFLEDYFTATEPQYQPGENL
# CONDITION DETAILS: at 0.1 µM
# Description: GSK_PKIS: FYN mean inhibition at 0.1 uM [Nanosyn]
Give measured inhibition for each item. Keep answers brief.
Provide only the numeric value, understood in %.

Sample `COc1cc(Nc2ncc(-c3ccccc3)o2)cc(OC)c1OC` — what was its inhibition?
6.4

Would you mind doing `CN(C)CCOc1ccc(-c2cc(-c3ccc4c(c3)CCC4=NO)c(-c3ccncc3)o2)cc1` as well?
1.29

Would you mind doing `Cc1ccc(NC(=O)c2ccoc2)cc1-c1ccc(C(=O)NCC2CC2)cc1` as well?
0.65

Would you mind doing `Fc1ccc(-c2nc3n(c2-c2ccncc2)CCS3)cc1` as well?
0.03

Would you mind doing `COc1cc(C)c(N(C)C(=O)CN(C)C)cc1Nc1nc(Nc2cccc(F)c2C(N)=O)c2cc[nH]c2n1` as well?
-3.95

Would you mind doing `Cc1nnc(-c2ccc(C)c(-c3ccc(C(=O)NCc4ccc(Cl)cc4)cc3)c2)o1` as well?
-2.42

Would you mind doing `COc1cc(N2CCN(C(C)C)CC2)ccc1Nc1nc(Nc2ccc(F)cc2C(=O)NC[C@@H](O)CO)c2cc[nH]c2n1` as well?
0.03

Would you mind doing `Fc1ccc(-c2ncn(C3CCNCC3)c2-c2ccnc(Oc3ccc(Oc4ccccc4)cc3)n2)cc1` as well?
2.65

* * *

# ASSAY TARGET: Protein kinase C eta type (Homo sapiens) (UniProt P24723)
# Sequence (P24723 whole entry): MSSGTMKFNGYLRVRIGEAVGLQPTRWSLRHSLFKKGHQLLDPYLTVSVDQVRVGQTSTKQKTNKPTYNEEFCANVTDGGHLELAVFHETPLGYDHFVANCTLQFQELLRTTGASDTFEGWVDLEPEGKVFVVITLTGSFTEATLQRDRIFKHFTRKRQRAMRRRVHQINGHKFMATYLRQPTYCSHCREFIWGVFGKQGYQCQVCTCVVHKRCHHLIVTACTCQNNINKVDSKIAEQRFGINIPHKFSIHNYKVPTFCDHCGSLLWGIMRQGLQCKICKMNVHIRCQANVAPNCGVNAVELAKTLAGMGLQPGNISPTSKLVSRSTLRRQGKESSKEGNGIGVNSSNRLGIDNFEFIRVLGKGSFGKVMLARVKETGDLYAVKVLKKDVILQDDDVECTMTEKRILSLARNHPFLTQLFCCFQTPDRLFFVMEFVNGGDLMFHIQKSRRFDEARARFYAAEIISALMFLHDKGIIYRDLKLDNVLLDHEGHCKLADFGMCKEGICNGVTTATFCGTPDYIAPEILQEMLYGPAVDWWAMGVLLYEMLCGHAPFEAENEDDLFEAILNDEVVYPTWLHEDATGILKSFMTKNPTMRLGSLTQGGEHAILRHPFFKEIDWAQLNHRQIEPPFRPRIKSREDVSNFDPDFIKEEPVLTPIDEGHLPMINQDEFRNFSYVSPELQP
# CONDITION DETAILS: at 1 µM
RECORDED ENDPOINT: inhibition (%)
Provide only the numeric value, understood in %.

# returns recorded inhibition (system: Protein kinase C eta type (Homo sapiens) (UniProt P24723)) for `COc1cc(Nc2ncc(-c3ccccc3)o2)cc(OC)c1OC`;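 note: value is the mean inhibition, from GSK PKIS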
-4.38

Would you mind doing `COc1cc2ncn(-c3cc(OCc4cccs4)c(C(N)=O)s3)c2cc1OC` as well?
4.09

Would you mind doing `CCC(=O)Nc1ccc(C)c(-c2ccc(C(=O)NCC3CC3)cc2)c1` as well?
3.46

Would you mind doing `NC(=O)Cc1ccccc1Oc1nccc(-c2c(-c3ccc(F)cc3)ncn2C2CCNCC2)n1` as well?
0.22

Would you mind doing `CCc1ccc(Oc2nccc(-c3c(-c4ccc(F)cc4)ncn3C3CCNCC3)n2)cc1` as well?
5.32

Would you mind doing `NC(=O)c1cc(-c2ccc(F)cc2)cc(-c2ccncc2)c1N` as well?
8.19

Would you mind doing `Fc1ccc(-c2nc3n(c2-c2ccncc2)CCS3)cc1` as well?
4.84

Would you mind doing `COc1cc(Nc2ncc3c(C)nc(-c4cccc(C(F)(F)F)c4)n3n2)cc(OC)c1OC` as well?
3.64

Would you mind doing `COc1cc(N2CCN(C(C)C)CC2)ccc1Nc1nc(Nc2ccc(F)cc2C(=O)NC[C@@H](O)CO)c2cc[nH]c2n1` as well?
7.17

Would you mind doing `COc1cc(C)c(N(C)C(=O)CN(C)C)cc1Nc1nc(Nc2cccc(F)c2C(N)=O)c2cc[nH]c2n1` as well?
1.91

Would you mind doing `Fc1ccc(-c2ncn(C3CCNCC3)c2-c2ccnc(Oc3ccc(Oc4ccccc4)cc3)n2)cc1` as well?
5.81

Would you mind doing `Fc1ccc(-c2ncn(C3CCNCC3)c2-c2ccnc(Oc3ccc4c(c3)OCO4)n2)cc1` as well?
4.75

Would you mind doing `NC(=O)c1cc(-c2ccncc2)cc(-c2ccccc2)c1N` as well?
7.89

Would you mind doing `O=C(Nc1ccc(Oc2ccc3[nH]c(NC(=O)c4ccccc4)nc3c2)cc1)Nc1cc(C(F)(F)F)ccc1F` as well?
4.58

Would you mind doing `O=C(Nc1n[nH]c2cc(-c3cc(F)ccc3F)ccc12)C1CC1` as well?
3.93

Would you mind doing `Cc1ccc(NC(=O)c2ccoc2)cc1-c1ccc(C(=O)NCC2CC2)cc1` as well?
3.88

* * *

Give measured inhibition for each item. Keep answers brief.
# ASSAY TARGET: Calcium/calmodulin-dependent protein kinase type 1D (Homo sapiens);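 note: reported figure is the mean percent inhibition of CAMK1D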
# CONDITION DETAILS: at 1 µM
Provide only the numeric value, understood in %.

Sample `COc1cccc(/C=N/Nc2ncnc3c2cnn3-c2cccc(OC)c2)c1` — what was its inhibition?
0.89

Would you mind doing `CCS(=O)(=O)c1ccc(OC)c(Nc2ncc(-c3cccc(-c4ccccc4F)c3)o2)c1` as well?
0.18

Would you mind doing `Fc1ccc(-c2ncn(C3CCNCC3)c2-c2ccnc(Oc3ccc4c(c3)OCO4)n2)cc1` as well?
0.53

Would you mind doing `O=C1Nc2ccc(I)cc2C1=Cc1cc(Br)c(O)c(Br)c1` as well?
2.96

Would you mind doing `O=C(Nc1n[nH]c2nc(-c3ccc(O)cc3)c(Br)cc12)C1CC1` as well?
14.4

Would you mind doing `NCc1ccc(-n2c(-c3nonc3N)nc3cnccc32)cc1` as well?
4.78

Would you mind doing `CCc1nccc2c1nc(-c1nonc1N)n2CC` as well?
1.8

Would you mind doing `Cc1ccc(NC(=O)c2ccoc2)cc1-c1ccc(C(=O)NCC2CC2)cc1` as well?
-1.53

Would you mind doing `COc1cc2ncn(-c3cc(OCc4cccs4)c(C(N)=O)s3)c2cc1OC` as well?
0.12

Would you mind doing `CCc1cccc(CC)c1/C=C/c1cncc(C(=O)NC)c1` as well?
1.99

Would you mind doing `CCS(=O)(=O)c1ccc(OC)c(Nc2ncc(-c3ccccc3Cl)o2)c1` as well?
1.43

Would you mind doing `COc1cc(Nc2ncc3c(C)nc(-c4cccc(C(F)(F)F)c4)n3n2)cc(OC)c1OC` as well?
-0.82

Would you mind doing `COc1cccc(-n2cnc3c(N/N=C/c4ccncc4)ncnc32)c1` as well?
-0.39

Would you mind doing `C/C(Nc1ccc(S(N)(=O)=O)cc1)=C1/C(=O)Nc2ccccc21` as well?
-0.55

Would you mind doing `O=C(Nc1n[nH]c2cc(-c3cc(F)ccc3F)ccc12)C1CC1` as well?
1.27

Would you mind doing `CN(C)CCOc1ccc(-c2cc(-c3ccc4c(c3)CCC4=NO)c(-c3ccncc3)o2)cc1` as well?
1.79

Would you mind doing `NS(=O)(=O)c1ccc(N/N=C2\C(=O)Nc3ccc(-c4cnco4)cc32)cc1` as well?
2.62

Would you mind doing `C[C@@H](Oc1cc(-n2cnc3ccc(OC4CCN(C)CC4)cc32)sc1C(N)=O)c1ccccc1Cl` as well?
3.84

Would you mind doing `CCN(CC)Cc1ccc(Nc2nccc(-c3cnn4ncccc34)n2)cc1` as well?
4.23

Would you mind doing `c1ccc(-c2n[nH]cc2-c2ccnc(-c3ccc(OCCN4CCOCC4)cc3)c2)nc1` as well?
3.63

Would you mind doing `O=C(Nc1n[nH]c2cc(-c3ccccc3)ccc12)C1CC1` as well?
-0.38

Would you mind doing `O=C(Nc1n[nH]c2nc(-c3ccco3)ccc12)C1CC1` as well?
2.1

Would you mind doing `CN1CCN(CCCNc2nc3ccc(Oc4ccc(NC(=O)Nc5cc(C(F)(F)F)ccc5F)cc4)cc3[nH]2)CC1` as well?
4.38

Would you mind doing `COc1ccc2cc(-c3c(-c4ccncc4)nc(-c4ccc(S(C)(=O)=O)cc4C)n3C)ccc2c1` as well?
1.85

Would you mind doing `Cc1ccc(C(=O)NC2CCC2)cc1-c1ccc(C(=O)NCC2CC2)cc1` as well?
2.93

Would you mind doing `CCC(=O)Nc1ccc(C)c(-c2ccc(C(=O)NCC3CC3)cc2)c1` as well?
1.64

Would you mind doing `Clc1ccc(CNc2nccc(-c3cnn4ncccc34)n2)cc1` as well?
1.01

Would you mind doing `NC(=O)c1cc(-c2ccc(F)cc2)cc(-c2ccncc2)c1N` as well?
0.29

Would you mind doing `O=C1Nc2ccccc2/C1=C/Nc1ccc(-n2cncn2)cc1` as well?
0.98

Would you mind doing `Cc1nnc(-c2ccc(C)c(-c3ccc(C(=O)NCc4ccc(Cl)cc4)cc3)c2)o1` as well?
0.04

Would you mind doing `Fc1ccc(-c2ncn(C3CCNCC3)c2-c2ccnc(Oc3ccc(F)c(F)c3)n2)cc1` as well?
-1.08

Would you mind doing `Fc1ccc(-c2ncn(CCCN3CCOCC3)c2-c2ccncc2)cc1` as well?
1.54

Would you mind doing `NS(=O)(=O)c1ccc(Nc2cc(-c3ccc(O)c(F)c3)n[nH]2)cc1` as well?
0.78

Would you mind doing `C#Cc1cccc(Nc2ncnc3ccc(OCCCCNCCS(C)(=O)=O)cc23)c1` as well?
0.48

Would you mind doing `Fc1ccc(-c2ncn(C3CCNCC3)c2-c2ccnc(Oc3ccc(Oc4ccccc4)cc3)n2)cc1` as well?
3.87
